# protocol-description: Plasma toxicokinetics, 28-day inhalation study in dogs
# test-settings: male, Beagle, dog, in vivo, inhaled or intranasal, 1.36 mg/kg

{"molecule": "CC(C)/N=c1\\cc2n(-c3ccc(Cl)cc3)c3ccccc3nc-2cc1Nc1ccc(Cl)cc1 [Clofazimine]", "value-unit": "h", "half-life": 8.95}

###

# protocol-description: Lung and other tissue toxicokinetics, 28-day inhalation study in dogs
# test-settings: male, Beagle, in vivo, inhaled or intranasal, 5.45 mg/kg; dog lung, SD29 to SD84; Mid dose males; read-out: lung terminal elimination half-life (converted)
assay-endpoint: half-life (h)

{"molecule": "CC(C)/N=c1\\cc2n(-c3ccc(Cl)cc3)c3ccccc3nc-2cc1Nc1ccc(Cl)cc1 [Clofazimine]", "observed-result": 239}

###

# protocol-description: Plasma toxicokinetics, 28-day inhalation study in dogs
# test-settings: male, Beagle, dog, in vivo, inhaled or intranasal, 2.72 mg/kg

{"test-smiles": "CC(C)/N=c1\\cc2n(-c3ccc(Cl)cc3)c3ccccc3nc-2cc1Nc1ccc(Cl)cc1", "half-life (h)": 7.89}

###

# protocol-description: Lung and other tissue toxicokinetics, 28-day inhalation study in dogs
# test-settings: male, Beagle, in vivo, inhaled or intranasal, 10.87 mg/kg; dog lung, SD29 to SD84; High dose males; read-out: lung terminal elimination half-life (converted)

{"compound": "CC(C)/N=c1\\cc2n(-c3ccc(Cl)cc3)c3ccccc3nc-2cc1Nc1ccc(Cl)cc1 [Clofazimine]", "half-life / days": 19.8}

###

# protocol-description: Lung and other tissue toxicokinetics, 28-day inhalation study in dogs
# test-settings: female, Beagle, in vivo, inhaled or intranasal, 2.95 mg/kg; dog lung, SD29 to SD84; Low dose females; read-out: lung terminal elimination half-life (converted)

{"test-smiles": "CC(C)/N=c1\\cc2n(-c3ccc(Cl)cc3)c3ccccc3nc-2cc1Nc1ccc(Cl)cc1", "half-life (days)": 10.9}

###

# protocol-description: Plasma toxicokinetics, 28-day inhalation study in dogs
# test-settings: male, Beagle, dog, in vivo, inhaled or intranasal, 0.68 mg/kg

{"test-smiles": "CC(C)/N=c1\\cc2n(-c3ccc(Cl)cc3)c3ccccc3nc-2cc1Nc1ccc(Cl)cc1", "value-unit": "h", "half-life": 7.19}
